System: HCC1954 (Breast Carcinoma)
Assay: Bliss excess, mean over the matrix (fraction); higher = more synergy
Parameter: Bliss excess. Scope: all listed entries.

Sample records with Bliss excess:
C=CCn1c(=O)c2cnc(Nc3ccc(N4CCN(C)CC4)cc3)nc2n1-c1cccc(C(C)(C)O)n1 [AZD1775] + C1CN(CCC1(C(=O)N[C@@H](CCO)C2=CC=C(C=C2)Cl)N)C3=NC=NC4=C3C=CN4 [Capivasertib] (first compound max 3 µM, partner max 3 µM) : 0.002
Cn1cnc2c(F)c(Nc3ccc(Br)cc3Cl)c(C(=O)NOCCO)cc21 [Selumetinib] + C=CCn1c(=O)c2cnc(Nc3ccc(N4CCN(C)CC4)cc3)nc2n1-c1cccc(C(C)(C)O)n1 [AZD1775] (first compound max 10 µM, partner max 1 µM) : -0.0005

Attention now shifts to the item below.
Data request: Look up Bliss excess for this compound: CC1(C)CCC(CN2CCN(c3ccc(C(=O)NS(=O)(=O)c4ccc(NCC5CCOCC5)c([N+](=O)[O-])c4)c(Oc4cnc5[nH]ccc5c4)c3)CC2)=C(c2ccc(Cl)cc2)C1 [Venetoclax] + CCN(CCO)CCCOc1ccc2c(Nc3cc(CC(=O)Nc4cccc(F)c4)[nH]n3)ncnc2c1 [AZD2811] (first compound max 1 µM, 7x7, partner max 1 µM)
Data returned: 0.0579

* * *

Tested on: CAPAN-2 (Pancreatic Carcinoma)
Experiment: combination Emax (second highest fraction inhibited in the dose matrix, 72 h); higher = more inhibition; extreme values may be limits of the assay
Overview of recorded combination Emax for various compounds
Enter the number alone.

Use these answered entries as a reference point.
CC(=O)c1c(C)c2cnc(Nc3ccc(N4CCNCC4)cn3)nc2n(C2CCCC2)c1=O [Palbociclib] + Cc1c2c(nn1C)CSCc1cc(n(C)n1)CSc1cc(c3ccccc3c1)OCCCc1c(C(=O)O)n(C)c3c-2c(Cl)ccc13 [AZD5991] (first compound max 10 µM, 7x7, partner max 1 µM) : 0.139
Cc1c2c(nn1C)CSCc1cc(n(C)n1)CSc1cc(c3ccccc3c1)OCCCc1c(C(=O)O)n(C)c3c-2c(Cl)ccc13 [AZD5991] + Nc1ccn([C@@H]2O[C@H](CO)[C@@H](O)C2(F)F)c(=O)n1 [Gemcitabine] (first compound max 1 µM, 7x7, partner max 0.3 µM) : 0.101
NC1(C(=O)N[C@@H](CCO)c2ccc(Cl)cc2)CCN(c2ncnc3[nH]ccc23)CC1 [Capivasertib] + CC(=O)c1c(C)c2cnc(Nc3ccc(N4CCNCC4)cn3)nc2n(C2CCCC2)c1=O [Palbociclib] (first compound max 10 µM, 7x7, partner max 10 µM) : 0.242
Cc1cc2ncnn2cc1Nc1ncc2c(n1)n(C1CCOCC1)c(=O)n2C [AZD7648] + C[C@@H]1COCCN1C2=NC(=NC(=C2)C3(CC3)[S@](=N)(=O)C)C4=C5C=CNC5=NC=C4 [AZD6738] (first compound max 10 µM, 7x7, partner max 10 µM) : 0.346

Let's switch to this compound now.
Data request: Field request: combination Emax | item: O=C(c1cc(Cc2n[nH]c(=O)c3ccccc23)ccc1F)N1CCN(C(=O)C2CC2)CC1 [Olaparib] + CC1(C)CCC(CN2CCN(c3ccc(C(=O)NS(=O)(=O)c4ccc(NCC5CCOCC5)c([N+](=O)[O-])c4)c(Oc4cnc5[nH]ccc5c4)c3)CC2)=C(c2ccc(Cl)cc2)C1 [Venetoclax] (first compound max 10 µM, 7x7, partner max 1 µM)
Data returned: 0.0502

* * *

Tested on: CAL-29 (Bladder Carcinoma)
Assay: Bliss excess, mean over the matrix (fraction); higher = more synergy
Consider the following molecules and their measured Bliss excess readings.
API note: the answer field is a bare number with no unit suffix.

Solved entries (count: 4):
C[C@@H](c1ccc2nccn2c1)n1nnc2ncc(-c3cnn(C)c3)nc21 [Savolitinib] + CC1(C)CCC(CN2CCN(c3ccc(C(=O)NS(=O)(=O)c4ccc(NCC5CCOCC5)c([N+](=O)[O-])c4)c(Oc4cnc5[nH]ccc5c4)c3)CC2)=C(c2ccc(Cl)cc2)C1 [Venetoclax] (first compound max 1 µM, 7x7, partner max 1 µM) : -0.0655
Cc1c2c(nn1C)CSCc1cc(n(C)n1)CSc1cc(c3ccccc3c1)OCCCc1c(C(=O)O)n(C)c3c-2c(Cl)ccc13 [AZD5991] + C[C@@H](Nc1cc(F)cc(F)c1)c1cc(C(=O)N(C)C)cc2c(=O)cc(N3CCOCC3)oc12 [AZD8186] (first compound max 1 µM, 7x7, partner max 3 µM) : 0.0096
COc1cccc(OCCCN)c1-c1cc(Nc2cnc(C#N)cn2)n[nH]1 [Prexasertib] + C[C@@H]1COCCN1C2=NC(=NC(=C2)C3(CC3)[S@](=N)(=O)C)C4=C5C=CNC5=NC=C4 [AZD6738] (first compound max 1 µM, 7x7, partner max 10 µM) : -0.0331
CC1(C)CCC(CN2CCN(c3ccc(C(=O)NS(=O)(=O)c4ccc(NCC5CCOCC5)c([N+](=O)[O-])c4)c(Oc4cnc5[nH]ccc5c4)c3)CC2)=C(c2ccc(Cl)cc2)C1 [Venetoclax] + CN(C)CCCOc1ccc(-c2ccc3ncc4c(c3c2)n(C2CCOCC2)c(=O)n4C)cn1 [AZD0156] (first compound max 1 µM, 7x7, partner max 1 µM) : -0.0219

Data request: Bench note: what Bliss excess did COc1cc2ncnc(Nc3ccc(F)c(Cl)c3)c2cc1OCCCN1CCOCC1 [Gefitinib] + CC(C)n1c(=O)n(C)c2cnc3cc(F)c(-c4ccc(OCCCN5CCCCC5)nc4)cc3c21 [AZD1390] (first compound max 10 µM, 7x7, partner max 0.3 µM) show?
Data returned: -0.104

Data request: Do the same for Cn1cnc2c(F)c(Nc3ccc(Br)cc3Cl)c(C(=O)NOCCO)cc21 [Selumetinib] + C[C@@H]1COCCN1C2=NC(=NC(=C2)C3(CC3)[S@](=N)(=O)C)C4=C5C=CNC5=NC=C4 [AZD6738] (first compound max 10 µM, 7x7, partner max 10 µM) please
Data returned: 0.0155

Data request: Likewise for CC(=O)Nc1cccc(-n2c(=O)n(C3CC3)c(=O)c3c(Nc4ccc(I)cc4F)n(C)c(=O)c(C)c32)c1 [Trametinib] + Cc1nc(-c2cn3c(n2)-c2ccc(-c4cnn(C(C)(C)C(N)=O)c4)cc2OCC3)n(C(C)C)n1 [Taselisib] (first compound max 1 µM, 7x7, partner max 10 µM) ?
Data returned: 0.136

Data request: Follow-up entry: C=CCn1c(=O)c2cnc(Nc3ccc(N4CCN(C)CC4)cc3)nc2n1-c1cccc(C(C)(C)O)n1 [AZD1775] + C[C@@H]1COCCN1C2=NC(=NC(=C2)C3(CC3)[S@](=N)(=O)C)C4=C5C=CNC5=NC=C4 [AZD6738] (first compound max 1 µM, partner max 10 µM)
Data returned: -0.006

Data request: And then CCN(CCO)CCCOc1ccc2c(Nc3cc(CC(=O)Nc4cccc(F)c4)[nH]n3)ncnc2c1 [AZD2811] + O=C(c1cc(Cc2n[nH]c(=O)c3ccccc23)ccc1F)N1CCN(C(=O)C2CC2)CC1 [Olaparib] (first compound max 1 µM, 7x7, partner max 10 µM) , what is it?
Data returned: 0.0378

* * *

System: NCI-H2066 (Squamous Cell Lung Carcinoma)
Experiment: combination Emax (second highest fraction inhibited in the dose matrix, 72 h); higher = more inhibition; extreme values may be limits of the assay
# combination Emax per entry
Just the number.

CN(CCO)CC[C@H](CSc1ccccc1)Nc1ccc(S(=O)(=O)NC(=O)c2ccc(N3CCC([C@@H](O)c4ccccc4-c4ccc(Cl)cc4)CC3)cc2)cc1S(=O)(=O)C(F)(F)F [AZD4320] + C=CCn1c(=O)c2cnc(Nc3ccc(N4CCN(C)CC4)cc3)nc2n1-c1cccc(C(C)(C)O)n1 [AZD1775] (first compound max 1 µM, partner max 1 µM) : 0.646

API: the following record is the query input.
Data request: Query combination Emax on NCI-H2066 (Squamous Cell Lung Carcinoma) for CN(CCO)CC[C@H](CSc1ccccc1)Nc1ccc(S(=O)(=O)NC(=O)c2ccc(N3CCC([C@@H](O)c4ccccc4-c4ccc(Cl)cc4)CC3)cc2)cc1S(=O)(=O)C(F)(F)F [AZD4320] + Nc1ccn([C@@H]2O[C@H](CO)[C@@H](O)C2(F)F)c(=O)n1 [Gemcitabine] (first compound max 1 µM, 7x7, partner max 0.3 µM)
Data returned: 0.338

* * *

Bliss excess reference
System: SK-MES-1 (Squamous Cell Lung Carcinoma)
Test: Bliss excess, mean over the matrix (fraction); higher = more synergy
In your answer, state the number alone without any accompanying words.

Cc1c2c(nn1C)CSCc1cc(n(C)n1)CSc1cc(c3ccccc3c1)OCCCc1c(C(=O)O)n(C)c3c-2c(Cl)ccc13 [AZD5991] + C1CN(CCC1(C(=O)N[C@@H](CCO)C2=CC=C(C=C2)Cl)N)C3=NC=NC4=C3C=CN4 [Capivasertib] (first compound max 1 µM, 7x7, partner max 3 µM) : 0.0568

Data request: // lookup Bliss excess for Cc1c2c(nn1C)CSCc1cc(n(C)n1)CSc1cc(c3ccccc3c1)OCCCc1c(C(=O)O)n(C)c3c-2c(Cl)ccc13 [AZD5991] + CCN(CCO)CCCOc1ccc2c(Nc3cc(CC(=O)Nc4cccc(F)c4)[nH]n3)ncnc2c1 [AZD2811] (first compound max 1 µM, 7x7, partner max 1 µM)
Data returned: 0.0098

Data request: Please do the same for Cc1cc2ncnn2cc1Nc1ncc2c(n1)n(C1CCOCC1)c(=O)n2C [AZD7648] + C=CCn1c(=O)c2cnc(Nc3ccc(N4CCN(C)CC4)cc3)nc2n1-c1cccc(C(C)(C)O)n1 [AZD1775] (first compound max 10 µM, partner max 1 µM) as well.
Data returned: 0.0167

Data request: Let us now turn to CN(CCO)CC[C@H](CSc1ccccc1)Nc1ccc(S(=O)(=O)NC(=O)c2ccc(N3CCC([C@@H](O)c4ccccc4-c4ccc(Cl)cc4)CC3)cc2)cc1S(=O)(=O)C(F)(F)F [AZD4320] + Cc1cc2ncnn2cc1Nc1ncc2c(n1)n(C1CCOCC1)c(=O)n2C [AZD7648] (first compound max 1 µM, 7x7, partner max 10 µM)
Data returned: -0.0632

Data request: Also, CC1(C)CCC(CN2CCN(c3ccc(C(=O)NS(=O)(=O)c4ccc(NCC5CCOCC5)c([N+](=O)[O-])c4)c(Oc4cnc5[nH]ccc5c4)c3)CC2)=C(c2ccc(Cl)cc2)C1 [Venetoclax] + CN(C)CCCOc1ccc(-c2ccc3ncc4c(c3c2)n(C2CCOCC2)c(=O)n4C)cn1 [AZD0156] (first compound max 1 µM, 7x7, partner max 1 µM) please.
Data returned: -0.0106

Data request: Request: C[C@@H](c1ccc2nccn2c1)n1nnc2ncc(-c3cnn(C)c3)nc21 [Savolitinib] + CN(CC[C@H](CSC1=CC=CC=C1)NC2=C(C=C(C=C2)S(=O)(=O)NC(=O)C3=CC=C(C=C3)N4CCC(CC4)[C@H](C5=CC=CC=C5C6=CC=C(C=C6)Cl)O)S(=O)(=O)C(F)(F)F)CCO [AZD4320] (first compound max 1 µM, 7x7, partner max 1 µM)
Data returned: -0.0188

Data request: Same again, this time with CN(CCO)CC[C@H](CSc1ccccc1)Nc1ccc(S(=O)(=O)NC(=O)c2ccc(N3CCC([C@@H](O)c4ccccc4-c4ccc(Cl)cc4)CC3)cc2)cc1S(=O)(=O)C(F)(F)F [AZD4320] + CCN(CCO)CCCOc1ccc2c(Nc3cc(CC(=O)Nc4cccc(F)c4)[nH]n3)ncnc2c1 [AZD2811] (first compound max 1 µM, 7x7, partner max 1 µM)
Data returned: -0.0328

Data request: Continue with COc1nnc2ccc(N3CCC(c4ccc(OCCN5CCN(C)C(=O)[C@H]5C)cc4)CC3)nn12 [AZD5153] + C[C@@H]1COCCN1C2=NC(=NC(=C2)C3(CC3)[S@](=N)(=O)C)C4=C5C=CNC5=NC=C4 [AZD6738] (first compound max 1 µM, 7x7, partner max 10 µM)
Data returned: 0.0093

Data provenance is the supplement of paper PMC11061612.
